- Test system: Vero cells
- experimental_details: MTT cytotoxicity assay
- recorded_conditions: read-out: Cytotoxicity CC50; best analogues of hit 3, in-house synthesized hit 3 as control; MTT in Vero cells at 72 h
parameter_measured: CC50 (µM)
Answer format: numeric, µM implied, no suffix.

Just so you know, measured CC50 for Cc1ccc(NC(=S)NNC(=O)c2ccccn2)cc1 came out at 39.6

###

- Tested on: DENV-2 NGC strain
- experimental_details: Plaque reduction assay (PRA) in Vero cells
- Format: cell-based
- recorded_conditions: selected hits; ratio between CC50 and EC50
List of SI (selectivity index) values.

Sure, the documented SI (selectivity index) for O=C(NCc1nc2ccccc2[nH]1)c1ccc2[nH]nnc2c1 is >3

Please fill in: SI (selectivity index) reported for N=c1c2cnn(-c3ccccc3)c2ncn1NC(=S)Nc1ccccc1 = >3

N#Cc1cn[nH]c1NCc1ccc(OCc2ccccc2)cc1O has a reported SI (selectivity index) of >19
